- SUBJECT OF TEST: IRAK4 (Homo sapiens (Human), UniProt Q9NWZ3)
- Sequence (Q9NWZ3 whole entry, species assumed): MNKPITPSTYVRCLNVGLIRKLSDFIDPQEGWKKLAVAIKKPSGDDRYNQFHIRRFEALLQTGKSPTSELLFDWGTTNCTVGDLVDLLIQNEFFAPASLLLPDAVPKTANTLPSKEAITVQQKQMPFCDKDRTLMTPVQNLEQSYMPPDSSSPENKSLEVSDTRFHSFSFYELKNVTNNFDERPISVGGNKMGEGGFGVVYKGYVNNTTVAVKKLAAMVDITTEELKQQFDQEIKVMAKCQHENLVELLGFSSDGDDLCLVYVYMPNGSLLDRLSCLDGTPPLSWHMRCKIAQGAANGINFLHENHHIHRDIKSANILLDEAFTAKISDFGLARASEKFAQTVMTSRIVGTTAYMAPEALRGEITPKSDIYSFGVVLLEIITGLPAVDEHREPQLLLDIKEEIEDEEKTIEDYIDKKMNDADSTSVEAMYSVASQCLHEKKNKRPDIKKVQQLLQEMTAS
- TEST METHOD NOTES: IRAK4 Biochemical HTRF Kinase Assay
- EXPERIMENTAL CONTEXT: Table 5; multiple runs; read-out: IRAK4 HTRF biochemical: IC50
REPORTED ENDPOINT: IC50 (nM)

As a guide, the following entries are already answered.
CNc1cc(-c2ccc3cc(C#N)cnn23)ncc1-c1nnc(C23CCC(NC(=O)CCC(=O)N[C@H](C(=O)N4C[C@H](O)C[C@H]4C(=O)N[C@@H](C)c4ccc(-c5scnc5C)cc4)C(C)(C)C)(CC2)CC3)s1 | 1.7
CNc1cc(-c2ccc3cc(C#N)cnn23)ncc1-c1nnc([C@H]2CC[C@H](N(C)C(=O)C[C@H](NC(=O)[C@@H]3C[C@@H](O)CN3C(=O)[C@@H](NC(=O)C3(F)CC3)C(C)(C)C)c3ccc(-c4scnc4C)cc3)CC2)s1 | 1

1 = CNc1cc(-c2ccc3cc(C#N)cnn23)ncc1-c1nnc(C23CCC(NC(=O)C[C@H](NC(=O)[C@@H]4C[C@@H](O)CN4C(=O)[C@@H](NC(=O)C4(F)CC4)C(C)(C)C)c4ccc(-c5scnc5C)cc4)(CC2)CC3)s1
2 = CNc1cc(-c2ccc3cc(C#N)cnn23)ncc1-c1nnc(C23CCC(NC(=O)CCOCCNc4cccc5c4C(=O)N(C4CCC(=O)NC4=O)C5=O)(CC2)CC3)s1 (stereo not shown)
Request: Of 1 versus 2 , which is the one with smaller reported IC50? // output: label of the selected item
Result: 2
